B1: Arabidopsis thaliana cryptochrome 2 (CRY2, UniProt Q96524), residues 1-535 fused after the Gal4 DNA-binding domain (Gal4BD-CRY2(535)); mutagenized window 321-412, Q96524 (parent)
chain: MKMDKKTIVWFRRDLRIEDNPALAAAAHEGSVFPVFIWCPEEEGQFYPGRASRWWMKQSLAHLSQSLKALGSDLTLIKTHNTISAILDCIRVTGATKVVFNHLYDPVSLVRDHTVKEKLVERGISVQSYNGDLLYEPWEIYCEKGKPFTSFNSYWKKCLDMSIESVMLPPPWRLMPITAAAEAIWACSIEELGLENEAEKPSNALLTRAWSPGWSNADKLLNEFIEKQLIDYAKNSKKVVGNSTSLLSPYLHFGEISVRHVFQCARMKQIIWARDKNSEGEESADLFLRGIGLREYSRYICFNFPFTHEQSLLSHLRFFPWDADVDKFKAWRQGRTGYPLVDAGMRELWATGWMHNRIRVIVSSFAVKFLLLPWKWGMKYFWDTLLDADLECDILGWQYISGSIPDGHELDRLDNPALQGAKYDPEGEYIRQWLPELARLPTEWIHHPWDAPLTVLKASGVELGTNYAKPIVDIDTARELLAKAISRTREAQIMIGAAPDEIVADSFEALGANTIKEPGLCPSVSSNDQQVPSAV

Variants of: B1
METHOD NOTES: yeast two-hybrid growth selection (MaV203; Gal4BD-CRY2(1-535) library x Gal4AD-CIB1; URA3 reporter on SC -Trp/-Leu/-Ura) in the dark, deep sequencing before and after selection, Enrich2 scoring; three independent screens (one at 48 h, two …)
STUDY CONDITIONS: with CIB1 (CRYPTOCHROME-INTERACTING BASIC-HELIX-LOOP-HELIX 1), dark (no blue light), screens 1, 3 and 4, Svar > 0 = enriched under dark selection for CRY2-CIB1 two-hybrid growth (URA3 reporter), < 0 = depleted, relative to wild type (whose scores are 0). 'The Enrich2 software calculates, parent: 0, not an affinity, scale: Enrich2 score, numbering: uniprot, sequence starts at 1
Note to self: class = bucket of enrichment, per label 0 = under -1, label 1 = from -1 up to -0.3, label 2 = -0.3 and over

Query: Input D389A ; output its category
Result: label 1

Query: What would you report for Y338C ?
Result: label 0

Query: Continue with M354R
Result: label 0

Query: Cool, now I400S
Result: label 1

Query: Next up: K368E
Result: label 2

Further cases:
Query: The entry to classify is R332I ; which class holds it?
Result: label 1

Query: Now consider G396V and answer again.
Result: label 2
